Data credit: ChEMBL document CHEMBL4396937

# Tested on: Pseudomonas aeruginosa
# assayMethodText: Antibacterial activity against Pseudomonas aeruginosa MTCC 2453 assessed as reduction in bacterial growth incubated for 24 hrs by agar well diffusion method
# Type: functional
# conditionDetails: MTCC 2453, 24 h
Measured MIC by item

[
  {
    "smilesNotation": "O=C(c1cn(-c2ccc(Cl)cc2)nn1)c1c(-c2ccccc2)nc2sccn12",
    "target": "Pseudomonas aeruginosa",
    "valueType": "MIC",
    "recordedValue": "3.9 µg/mL"
  }
]

Exercise: Retrieve MIC measured for `COc1ccc(-c2nc3sccn3c2C(=O)c2cn(-c3ccc(Br)cc3)nn2)cc1` and print it.
Key: > 125 µg/mL

Exercise: Please report MIC for the following compound: `COc1cc(-n2cc(C(=O)c3c(-c4ccccc4)nc4sccn34)nn2)cc(OC)c1OC`
Key: > 125 µg/mL

----------
# Tested on: Pseudomonas aeruginosa
# assayMethodText: Antibacterial activity against Pseudomonas aeruginosa MTCC 2453 assessed as reduction in bacterial growth incubated for 24 hrs by agar well diffusion method
# Format: functional
# conditionDetails: MTCC 2453, 24 h
valueType: MIC (µg/mL)
Just the number please, in µg/mL, no unit attached.

[
  {
    "smilesNotation": "O=C(c1cn(-c2ccc(F)cc2Br)nn1)c1c(-c2ccccc2)nc2sccn12",
    "MIC (µg/mL)": 3.9
  }
]

Exercise: Fill in reported MIC for this entry: `O=C(c1cn(-c2ccc(Br)cc2)nn1)c1c(-c2ccc(Cl)cc2)nc2sccn12`
Key: 3.9

----------
# Tested on: Pseudomonas aeruginosa
# assayMethodText: Antibacterial activity against Pseudomonas aeruginosa MTCC 2453 assessed as reduction in bacterial growth incubated for 24 hrs by agar well diffusion method
# Assay type: functional
# conditionDetails: MTCC 2453, 24 h
valueType: MIC (µg/mL)
Provide the reading as a plain figure in µg/mL.

[
  {
    "smilesNotation": "O=C(c1cn(-c2ccc(Cl)cc2)nn1)c1c(-c2ccc(Cl)cc2)nc2sccn12",
    "target": "Pseudomonas aeruginosa",
    "MIC, µg/mL": 3.9
  }
]

Attention now shifts to the item below.
Exercise: Quick one: give measured MIC for `O=C(c1cn(-c2ccc(Br)cc2)nn1)c1c(-c2ccccc2)nc2sccn12`
Key: 3.9

----------
# System: Bacillus subtilis
# assayMethodText: Bactericidal activity against Bacillus subtilis MTCC 121 assessed as reduction in bacterial survival incubated for 24 hrs followed by transfer of microbial suspension to agar plates and measured at 24 hrs post transfer by agar well diffusion method
# Format: functional
# conditionDetails: MTCC 121, 24 h
valueType: MBC (µg/mL)
Numbers only; they are read as µg/mL.

[
  {
    "smilesNotation": "O=C(c1cn(-c2ccc(F)cc2Br)nn1)c1c(-c2ccccc2)nc2sccn12",
    "valueType": "MBC",
    "unitText": "µg/mL",
    "recordedValue": 7.8
  },
  {
    "smilesNotation": "O=C(c1cn(-c2ccc(C(F)(F)F)cc2)nn1)c1c(-c2ccc(Cl)cc2)nc2sccn12",
    "valueType": "MBC",
    "unitText": "µg/mL",
    "recordedValue": 31.2
  },
  {
    "smilesNotation": "O=C(c1cn(-c2ccc(F)cc2)nn1)c1c(-c2ccccc2)nc2sccn12",
    "valueType": "MBC",
    "unitText": "µg/mL",
    "recordedValue": 15.6
  },
  {
    "smilesNotation": "O=C(c1cn(-c2ccc(Br)cc2)nn1)c1c(-c2ccc(Cl)cc2)nc2sccn12",
    "valueType": "MBC",
    "unitText": "µg/mL",
    "recordedValue": 7.8
  },
  {
    "smilesNotation": "COc1ccc(-c2nc3sccn3c2C(=O)c2cn(-c3ccc(Br)cc3)nn2)cc1",
    "valueType": "MBC",
    "unitText": "µg/mL",
    "recordedValue": 15.6
  }
]

# context switch: different compound, same MBC
Exercise: State its MBC for this compound: `COc1ccc(-n2cc(C(=O)c3c(-c4ccc(Cl)cc4)nc4sccn34)nn2)cc1`
Key: 7.8
